Assay: Cytotoxicity (CC50) in human PBMCs
Type: cell-based
Details: human PBMCs activated with IL-2 and PHA-P; Human PBMC, Subtype C (R5)
Measured parameter: CC50 at 5 days (µM)
Only the number, expressed in µM, is required.

Problem: Using known records, supply CC50 at 5 days for CC1=C[C@]23C(=O)[C@@H](C=C(CO)[C@@H](O)[C@]2(O)[C@H]1OC(=O)/C=C/c1ccccc1)[C@H]1[C@@H](C[C@H]3C)C1(C)C [ING-A, ingenol-3-trans-cinnamate]
Result: 34

Problem: Name the recorded CC50 at 5 days of the item CCCCCC(=O)O[C@H]1C(C)=C[C@]23C(=O)[C@@H](C=C(CO)[C@@H](O)[C@]12O)[C@H]1[C@@H](C[C@H]3C)C1(C)C [ING-B, ingenol-3-hexanoate] in your answer.
Result: 40

Problem: Give the reported value of CC50 at 5 days for this record: CCCCCCCCCCCC(=O)O[C@H]1C(C)=C[C@]23C(=O)[C@@H](C=C(CO)[C@@H](O)[C@]12O)[C@H]1[C@@H](C[C@H]3C)C1(C)C [ING-C, ingenol-3-dodecanoate]
Result: 38

----------
System: HIV-1 subtype B and C
Assay: Inhibition of HIV-1 subtype B and C replication, summary over MT-4 cells and human PBMCs
Format: cell-based
Conditions: Human immunodeficiency virus 1, PBMC, MT-4 and human PBMCs
pEC50: −log10 of the molar value.
Measured parameter: pEC50

Problem: Using the record for Cc1cn([C@H]2C[C@H](N=[N+]=[N-])[C@@H](CO)O2)c(=O)[nH]c1=O [ZDV, Zidovudine, reference compound] , state its measured pEC50.
Result: 8.10 to 8.40

----------
Would you kindly list EC50 for each of these compounds?
Test system: HIV-1 clone NL4.3 (subtype B)
Experiment: HIV-1 NL4.3 (subtype B) infection of human PBMCs, Cell Titer Blue readout
Type: cell-based
Details: Human immunodeficiency virus 1, PBMC

Problem: Give a short answer stating reported EC50 for CCCCCCCCCCCC(=O)O[C@H]1C(C)=C[C@]23C(=O)[C@@H](C=C(CO)[C@@H](O)[C@]12O)[C@H]1[C@@H](C[C@H]3C)C1(C)C [ING-C, ingenol-3-dodecanoate] .
Result: 0.052 µM

Problem: Give the reported EC50 for this compound. CCCCCC(=O)O[C@H]1C(C)=C[C@]23C(=O)[C@@H](C=C(CO)[C@@H](O)[C@]12O)[C@H]1[C@@H](C[C@H]3C)C1(C)C [ING-B, ingenol-3-hexanoate]
Result: 0.056 µM

Problem: Give the value of EC50 reported for the following: CC1=C[C@]23C(=O)[C@@H](C=C(CO)[C@@H](O)[C@]2(O)[C@H]1OC(=O)/C=C/c1ccccc1)[C@H]1[C@@H](C[C@H]3C)C1(C)C [ING-A, ingenol-3-trans-cinnamate]
Result: 0.053 µM

----------
Assay: Cytotoxicity (CC50) in MT-4 cells
Format: cell-based
Settings: human, Subtype B (X4)
For each record, write down the corresponding CC50 at 5 days.
Respond with the bare value in µM.

Problem: Give the measured CC50 at 5 days for CCCCCCCCCCCC(=O)O[C@H]1C(C)=C[C@]23C(=O)[C@@H](C=C(CO)[C@@H](O)[C@]12O)[C@H]1[C@@H](C[C@H]3C)C1(C)C [ING-C, ingenol-3-dodecanoate]
Result: 27

Problem: Consider the molecule CCCCCC(=O)O[C@H]1C(C)=C[C@]23C(=O)[C@@H](C=C(CO)[C@@H](O)[C@]12O)[C@H]1[C@@H](C[C@H]3C)C1(C)C [ING-B, ingenol-3-hexanoate] and give its recorded CC50 at 5 days.
Result: 28

Problem: Using the record for CC1=C[C@]23C(=O)[C@@H](C=C(CO)[C@@H](O)[C@]2(O)[C@H]1OC(=O)/C=C/c1ccccc1)[C@H]1[C@@H](C[C@H]3C)C1(C)C [ING-A, ingenol-3-trans-cinnamate] , state its measured CC50 at 5 days.
Result: 25
